# assay remarks: Toxicity liver stage against HepG2, at 10uM
# Format: cell-based
# Set-up: test concentration 10 uM, cell line HepG2-A16-CD81EGFP
# experimental context: human, HepG2-A16-CD81EGFP cells; read-out: INHIBITION
reported endpoint: cytotoxicity at 10 µM (%)
Give just the numeric value; % need not be written.

For the compound "CN(Cc1cnn(C)c1)C(=O)CCC(=O)c1ccc2c(c1)OCCO2" , what cytotoxicity at 10 µM is on record?
-1.14

For the compound O=C(CCc1nc(-c2ccsc2)no1)NCC1CCN(C2CC2)C1 (centres undefined) , what cytotoxicity at 10 µM is on record?
3.23

For the compound "COCCN1C[C@H](NC(=O)CCC(F)(F)F)[C@@H](C(C)C)C1" , what cytotoxicity at 10 µM is on record?
5.25

For the compound CNS(=O)(=O)c1cccc(C(C)NCc2ccc(F)c(F)c2)c1 (centres undefined) , what cytotoxicity at 10 µM is on record?
16.2

For the compound "CC(=O)c1cccc(OCCCC(=O)N(C)CCc2ccncc2)c1" , what cytotoxicity at 10 µM is on record?
-11.7

For the compound "O=C(CN1CCc2ccccc21)NCc1ccc(Cl)cc1" , what cytotoxicity at 10 µM is on record?
12.4

For the compound "Cc1nc2ncnn2c2ccn(-c3cccnc3O)c(=O)c12" , what cytotoxicity at 10 µM is on record?
15.9

For the compound "CC(=O)N1C[C@H]2CC[C@@H](C1)N(C(=O)CCc1n[nH]c3c1CCCC3)C2" , what cytotoxicity at 10 µM is on record?
10.3

For the compound "CNC(=O)c1ccc(Cn2ccnc2S(C)(=O)=O)cc1" , what cytotoxicity at 10 µM is on record?
-3.83

For the compound "O=c1cnc2ccccc2n1CCCn1cccn1" , what cytotoxicity at 10 µM is on record?
-26.4

For the compound "c1cc(CN2CCO[C@@H]3CNC[C@@H]32)cs1" , what cytotoxicity at 10 µM is on record?
9.22

For the compound NC(=O)C1CCN(C(=O)NCc2cccnc2OCC(F)(F)F)C1 (centres undefined) , what cytotoxicity at 10 µM is on record?
-11.2

For the compound "CC(C)CN(Cc1ccccn1)Cc1ccccc1C(=O)O" , what cytotoxicity at 10 µM is on record?
2.51

For the compound "O=C(NCc1nnc2n1CCC2)N1CCC2(CCCCC2)CC1" , what cytotoxicity at 10 µM is on record?
11

For the compound "Cc1cnc(-c2nc(NC3CC3)ncc2-c2cc(C)no2)cn1" , what cytotoxicity at 10 µM is on record?
-21.3

For the compound "COc1ccc(S(=O)(=O)Cc2cc(C)on2)cc1" , what cytotoxicity at 10 µM is on record?
7.55

For the compound "CNS(=O)(=O)c1csc(C(=O)NCc2sccc2C)c1" , what cytotoxicity at 10 µM is on record?
4.63

For the compound "O=C1COc2ccc(C(=O)NS(=O)(=O)c3ccccc3F)cc2N1" , what cytotoxicity at 10 µM is on record?
-0.185

For the compound "COc1ccccc1CC(=O)N1CC[C@@]2(CCCO2)[C@@H](OC)C1" , what cytotoxicity at 10 µM is on record?
11.7

For the compound c1coc(-c2noc(CN3CCCCC3Cn3cncn3)n2)c1 (centres undefined) , what cytotoxicity at 10 µM is on record?
-0.915

For the compound "Cc1cnc(C(=O)N2CCC3(CC2)CN(c2ccccn2)CCO3)cn1" , what cytotoxicity at 10 µM is on record?
-80.2

For the compound "O=C(NCCCn1cccn1)C1(c2cccc(Cl)c2)CC1" , what cytotoxicity at 10 µM is on record?
17.9

For the compound O=S(=O)(CCNC1CCc2ncnn2C1)c1ccccc1 (centres undefined) , what cytotoxicity at 10 µM is on record?
-5.58

For the compound "Cc1cc(C)c(CNC(=O)NCCNc2ccccn2)c(=O)[nH]1" , what cytotoxicity at 10 µM is on record?
-37

Data origin: ChEMBL document CHEMBL4513216
